Study system: Solute carrier organic anion transporter family member 1B1 (OATP1B1) (Homo sapiens, UniProt Q9Y6L6)
Test description: TP_TRANSPORTER: inhibition of E1S uptake (E1S: 0.004 uM, Quinidine: 500 uM) in Xenopus laevis oocytes
Type: functional, cell-based, Oocyte
Set-up: scale not given: the % may be the effect or the level left
Run parameters: probe E1S (0.004 uM), read-out: Activity
Quantity name: activity at 500 µM

In: Request the reported activity at 500 µM associated with C=C[C@H]1C[N@@]2CC[C@H]1C[C@@H]2[C@@H](O)c1ccnc2ccc(OC)cc12
Out: 81%

###

Study system: Solute carrier organic anion transporter family member 1B1 (OATP1B1) (Homo sapiens)
Sequence (Q9Y6L6 whole entry): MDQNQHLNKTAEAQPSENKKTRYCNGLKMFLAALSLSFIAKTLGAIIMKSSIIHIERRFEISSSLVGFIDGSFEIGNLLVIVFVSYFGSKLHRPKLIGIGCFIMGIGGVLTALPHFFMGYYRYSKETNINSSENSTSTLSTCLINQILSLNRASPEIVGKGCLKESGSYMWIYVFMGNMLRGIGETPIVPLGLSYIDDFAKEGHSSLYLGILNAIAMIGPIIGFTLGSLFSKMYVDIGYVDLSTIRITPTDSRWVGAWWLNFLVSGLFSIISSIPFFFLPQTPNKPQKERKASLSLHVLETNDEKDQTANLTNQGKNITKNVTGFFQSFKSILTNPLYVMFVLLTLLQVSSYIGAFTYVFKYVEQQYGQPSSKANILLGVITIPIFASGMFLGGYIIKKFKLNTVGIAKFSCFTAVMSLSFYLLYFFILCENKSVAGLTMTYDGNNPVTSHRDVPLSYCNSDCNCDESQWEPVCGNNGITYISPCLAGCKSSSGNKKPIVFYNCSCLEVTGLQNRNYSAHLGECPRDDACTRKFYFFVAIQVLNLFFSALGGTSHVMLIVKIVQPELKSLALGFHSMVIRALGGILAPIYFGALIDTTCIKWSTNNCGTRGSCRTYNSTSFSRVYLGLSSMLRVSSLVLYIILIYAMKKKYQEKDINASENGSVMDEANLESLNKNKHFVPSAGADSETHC
Test description: in vitro
Run parameters: xenopus laevis, Xenopus laevis oocytes, probe E1S (0.004 uM)
Quantity name: activity at 1000 µM (%)
Numbers only, in %.

In: Which measured activity at 1000 µM belongs to CC(C)C[C@H](NC(=O)[C@H](Cc1ccccc1)NC(=O)CNC(=O)CNC(=O)[C@@H](N)Cc1ccc(O)cc1)C(=O)O [ENKEPHALIN] , tested on Solute carrier organic anion transporter family member 1B1 (OATP1B1) (Homo sapiens)?
Out: 26.8

###

Study system: Solute carrier organic anion transporter family member 1B1 (OATP1B1) (Homo sapiens, UniProt Q9Y6L6)
Test description: TP_TRANSPORTER: inhibition of DPDPE uptake (DPDPE: 0.02 uM) in Xenopus laevis oocytes
Format: functional, cell-based, Oocyte
Design: scale not given: the % may be the effect or the level left
Run parameters: probe DPDPE (0.02 uM)
Quantity name: Activity (%)
Give bare numbers, in %.

INSERT INTO results (molecule, quantity_name, units_symbol, reported_value) VALUES
  ('O=C1OC(c2ccc(O)c(S(=O)(=O)O)c2)(c2ccc(O)c(S(=O)(=O)O)c2)c2c(Br)c(Br)c(Br)c(Br)c21 [SULFOBROMOPHTHALEIN SODIUM]', 'Activity', '%', 25);

In: Request the reported Activity associated with C[C@]12CC[C@@H]3c4ccc(OS(=O)(=O)O)cc4CC[C@H]3[C@@H]1CCC2=O
Out: 50

###

Study system: Solute carrier organic anion transporter family member 1B1 (OATP1B1) (Homo sapiens)
Test description: TP_TRANSPORTER: inhibition of E1S uptake (E1S: 0.004 uM, BSP: 50 uM) in Xenopus laevis oocytes
Type: functional, cell-based, Oocyte
Design: scale not given: the % may be the effect or the level left
Run parameters: probe E1S (0.004 uM), read-out: Activity
Quantity name: activity at 50 µM (%)
Give bare numbers, in %.

In: Request the reported activity at 50 µM associated with O=C1OC(c2ccc(O)c(S(=O)(=O)O)c2)(c2ccc(O)c(S(=O)(=O)O)c2)c2c(Br)c(Br)c(Br)c(Br)c21 [SULFOBROMOPHTHALEIN SODIUM]
Out: 8

###

Study system: Solute carrier organic anion transporter family member 1B1 (OATP1B1) (Homo sapiens)
Test description: TP_TRANSPORTER: inhibition of E1S uptake (E1S: 0.004 uM, Ala5: 5000 uM) in Xenopus laevis oocytes
Assay type: functional, cell-based, Oocyte
Parameters: scale not given: the % may be the effect or the level left
Run parameters: probe E1S (0.004 uM), read-out: Activity
Quantity name: activity at 5000 µM (%)
One number for each entry, in %.

In: Request the reported activity at 5000 µM associated with C[C@H](N)C(=O)N[C@@H](C)C(=O)N[C@@H](C)C(=O)N[C@@H](C)C(=O)N[C@@H](C)C(=O)O
Out: 86.3

###

Study system: Solute carrier organic anion transporter family member 1B1 (OATP1B1) (Homo sapiens)
Sequence (Q9Y6L6 whole entry): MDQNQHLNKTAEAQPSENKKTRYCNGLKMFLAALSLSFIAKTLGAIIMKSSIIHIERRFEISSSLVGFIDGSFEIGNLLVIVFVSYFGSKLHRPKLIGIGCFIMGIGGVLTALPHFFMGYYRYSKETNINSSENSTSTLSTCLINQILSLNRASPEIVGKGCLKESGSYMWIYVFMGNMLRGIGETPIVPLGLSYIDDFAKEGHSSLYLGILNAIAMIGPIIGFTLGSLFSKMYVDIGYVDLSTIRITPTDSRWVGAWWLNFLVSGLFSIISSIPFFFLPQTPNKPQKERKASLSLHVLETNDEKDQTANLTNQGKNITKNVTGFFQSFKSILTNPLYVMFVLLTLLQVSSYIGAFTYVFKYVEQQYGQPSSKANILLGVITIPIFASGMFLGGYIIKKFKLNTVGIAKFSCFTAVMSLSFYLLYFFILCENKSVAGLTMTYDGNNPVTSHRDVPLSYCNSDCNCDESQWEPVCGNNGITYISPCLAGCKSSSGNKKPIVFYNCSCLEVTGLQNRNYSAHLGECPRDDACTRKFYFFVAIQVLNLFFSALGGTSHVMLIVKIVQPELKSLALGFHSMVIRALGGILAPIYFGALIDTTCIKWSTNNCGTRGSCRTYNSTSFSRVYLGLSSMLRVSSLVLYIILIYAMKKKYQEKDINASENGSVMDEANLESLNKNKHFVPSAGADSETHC
Test description: TP_TRANSPORTER: inhibition of E1S uptake (E1S: 0.004 uM, des-tyrosine DADLE: 1000 uM) in Xenopus laevis oocytes
Assay type: functional, cell-based, Oocyte
Parameters: scale not given: the % may be the effect or the level left
Run parameters: probe E1S (0.004 uM), read-out: Activity
Quantity name: activity at 1000 µM (%)
Give bare numbers, in %.

In: Request the reported activity at 1000 µM associated with CC(C)C[C@@H](NC(=O)[C@H](Cc1ccccc1)NC(=O)CNC(=O)[C@@H](C)N)C(=O)O
Out: 62.5

###

Study system: Solute carrier organic anion transporter family member 1B1 (OATP1B1) (Homo sapiens)
Sequence (Q9Y6L6 whole entry): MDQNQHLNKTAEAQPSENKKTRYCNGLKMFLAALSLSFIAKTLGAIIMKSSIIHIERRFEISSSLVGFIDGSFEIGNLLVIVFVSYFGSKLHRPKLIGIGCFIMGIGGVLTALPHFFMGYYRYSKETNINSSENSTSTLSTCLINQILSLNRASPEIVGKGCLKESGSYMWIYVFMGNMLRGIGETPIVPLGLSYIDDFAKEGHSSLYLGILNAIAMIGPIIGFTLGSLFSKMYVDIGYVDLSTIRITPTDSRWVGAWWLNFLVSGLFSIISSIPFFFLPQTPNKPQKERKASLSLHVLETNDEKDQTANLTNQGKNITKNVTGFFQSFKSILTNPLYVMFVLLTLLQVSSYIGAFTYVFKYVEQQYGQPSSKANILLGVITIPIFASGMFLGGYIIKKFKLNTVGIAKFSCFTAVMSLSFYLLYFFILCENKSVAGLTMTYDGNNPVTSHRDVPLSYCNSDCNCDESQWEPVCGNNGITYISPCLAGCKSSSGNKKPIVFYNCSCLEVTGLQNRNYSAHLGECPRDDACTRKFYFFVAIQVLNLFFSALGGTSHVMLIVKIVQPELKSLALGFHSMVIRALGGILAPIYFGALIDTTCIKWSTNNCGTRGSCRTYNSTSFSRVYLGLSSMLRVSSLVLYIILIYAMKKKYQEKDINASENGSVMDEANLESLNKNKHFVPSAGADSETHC
Test description: TP_TRANSPORTER: inhibition of E1S uptake (E1S: 0.004 uM, YGG: 1000 uM) in Xenopus laevis oocytes
Format: functional, cell-based, Oocyte
Set-up: scale not given: the % may be the effect or the level left
Run parameters: probe E1S (0.004 uM), read-out: Activity
Where a SMILES comes first, the peptide text is derived from it.
Quantity name: activity at 1000 µM (%)
One number for each entry, in %.

In: Which measured activity at 1000 µM belongs to N[C@@H](Cc1ccc(O)cc1)C(=O)NCC(=O)NCC(=O)O (H-Tyr-Gly-Gly-OH) , tested on Solute carrier organic anion transporter family member 1B1 (OATP1B1) (Homo sapiens)?
Out: 77.2
